test system: MS2 coat protein; test: apparent KD of MS2 coat protein; designed switch direction (-1 OFF switch, 1 ON switch): -1; higher = weaker reporter binding; conditions: Eterna round: R95; input ligand: FMN 200 uM
READOUT_NAME: apparent KD of MS2 coat protein (nM)
# number only, unit nM dropped from output

AGUACUAUGCGAGCUGACUUGCGUAGUGCAGCAGGUGUAACAUGAGGAUCACCCAUGUCCUCAUUUGCUCGUCUUAU [Mat - Sensor v3 - Turn-off var 2 - D8] (puzzle: Sensor v3, turn-off variant 2)
250
GGAAAGCAAGGAUAUACAAGGAAACGAUGGAAAGUAGAGAGACAUGAGGAUCACCCAUGUAGAAGGUGCGAGAG [JR_Exclu2_Sub037] (puzzle: Exclusion 2)
36.9

Challenge: apparent KD of MS2 coat protein lookup needed for CGUCCUGAAGUGAGGAUAUUGUCUCGGAUACGAAACAAGAAGGCACAUGAGGAUCACCCAUGUAAACAGGACGA [Malc #30 mod 11] (puzzle: Brourd's mod of Exclusion 4) , thanks.
Response given: 15.3

Challenge: Here is the next sequence: UUUAAUUUUUUUUUUUUACAAGCUUUUUGCUCGUCUUAUACAUGAGGAUCACCCAUGUGGAUGGAGGAUAAAUUAUC [JMF 31] (puzzle: Sensor v3, turn-off variant 2)
Response given: 20.1

Challenge: // same read-out, input: AUAUUAACAUAGGAUAUCGAAUAAAUUAUUUAACGAGAAGGAUGAACAUGAGGAUCACCCAUGUGGUAUCAUGG [Mat - Exclusion 6 - JL Mod - D29] (puzzle: Exclusion 6)
Response given: 153
